Molecular target: CD137 (UniProt Q07011 24-255, limits assumed)
Sequence (Q07011 24-255 limits assumed): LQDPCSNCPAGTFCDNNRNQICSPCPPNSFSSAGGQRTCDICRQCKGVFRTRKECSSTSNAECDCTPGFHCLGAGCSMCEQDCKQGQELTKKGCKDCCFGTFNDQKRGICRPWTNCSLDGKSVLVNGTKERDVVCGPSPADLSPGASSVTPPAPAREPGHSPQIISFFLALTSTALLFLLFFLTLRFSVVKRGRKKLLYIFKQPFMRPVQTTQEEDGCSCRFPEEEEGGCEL
Assay: cell-based or functional assay
*1 amine or outer side, *2 acyl side, *3 side chain or, on linkers, in order; H or OH if unused. Bridges are numbered along the chain shown (N, C = ends). Roman numbers before positions name the chains, in order. Where no end group is shown, it is not given here. [ ]: non-standard residue; d: D form. The star is where a group is joined. TATA = O=C(CC[*:1])N1CN(C(=O)CC[*:2])CN(C(=O)CC[*:3])C1; 1Nal = N[C@@H](Cc1cccc2ccccc12)C(=O)O; Hyp = O=C(O)[C@@H]1C[C@@H](O)CN1; hArg = N=C(N)NCCCC[C@H](N)C(=O)O; tBuAla = CC(C)(C)C[C@H](N)C(=O)O; NMeA = CN[C@@H](C)C(=O)O; Nle = CCCC[C@H](N)C(=O)O; Pent4ynoyl = C#CCCC(=O)*
metric-name: Fold improvement in Emax over BCY10000 on same plate (fold)

binder="BCY12581 (linker I:1-I:5-I:15, II:1-II:8-II:15 via TATA; not fully specified (bridges); also: chain 1 N-terminus joined to chain 2 dLys(PYA) by Peg5 linker (heterotandem complex)) peptide 1: CP[1Nal][dE]CM[hArg]DWSTP[Hyp]WC peptide 2: Ac-C[tBuAla]PE[dK](Pent4ynoyl)PYCFADPY[Nle]CA" units_symbol=fold readout_number=0.88
binder="BCY11776 (not fully specified; [Ac]C[tBuAla]PE[dK]PYCFADPY[Nle]C[Dap(PYA)]; dK carries palmitic acid (Example 5); Cys residues bonded to TATA scaffold; CP[1Nal][dD]CM[HArg]DWSTP[HyP]WC; Cys residues bonded to TATA scaffold) peptide 1: CPXDCMXDWSTPXWC peptide 2: CXPEKPYCFADPYXCX" units_symbol=fold readout_number=0.07
binder="BCY12709 (linker I:1-I:5-I:15, II:1-II:8-II:15 via TATA; not fully specified (bridges); also: chain 1 N-terminus joined to chain 2 dLys(PYA) by Peg5 linker (heterotandem complex)) peptide 1: CP[1Nal][dD]CM[hArg]DWSTP[Hyp]WC peptide 2: Ac-C[tBuAla]PE[dK](Pent4ynoyl)PYCFAD[NMeA]Y[Nle]C" units_symbol=fold readout_number=2.15
binder="BCY12582 (linker I:1-I:5-I:15, II:1-II:8-II:15 via TATA; not fully specified (bridges); also: chain 1 N-terminus joined to chain 2 dLys(PYA) by Peg5 linker (heterotandem complex)) peptide 1: CP[1Nal][dA]CM[hArg]DWSTP[Hyp]WC peptide 2: Ac-C[tBuAla]PE[dK](Pent4ynoyl)PYCFADPY[Nle]CA" units_symbol=fold readout_number=1.32
